meta.source: patent US20260297136A1

system: HepG2 cells; assay: Hepatic lipogenic key enzymes in HepG2 cells in the presence of 30 mM fructose (2 h), Example 7; format: cell-based, human; conditions: 40 μg/ml
attribute.measured: fructose-induced expression of ACC

item.sequence: ATKTSASFEVRTWDPEAVIFY [GP10]
attribute.measured: fructose-induced expression of ACC
observed.value: able to reduce
//
item.sequence: TKTASAFEVRTWDPEGVIFYGDTNPKDDWF [GP11]
attribute.measured: fructose-induced expression of ACC
observed.value: able to reduce
//
item.sequence: TKTASAFEVRTWDPEGVIFY [GP12]
attribute.measured: fructose-induced expression of ACC
observed.value: able to reduce
